Items are presented alongside their recorded inhibition at 10 µM.
# testedOn: hDGAT1 (Homo sapiens)
# Construct: host or cells: Sf9 insect cells (baculovirus); microsomal preparation
# Sequence (O75907 whole entry): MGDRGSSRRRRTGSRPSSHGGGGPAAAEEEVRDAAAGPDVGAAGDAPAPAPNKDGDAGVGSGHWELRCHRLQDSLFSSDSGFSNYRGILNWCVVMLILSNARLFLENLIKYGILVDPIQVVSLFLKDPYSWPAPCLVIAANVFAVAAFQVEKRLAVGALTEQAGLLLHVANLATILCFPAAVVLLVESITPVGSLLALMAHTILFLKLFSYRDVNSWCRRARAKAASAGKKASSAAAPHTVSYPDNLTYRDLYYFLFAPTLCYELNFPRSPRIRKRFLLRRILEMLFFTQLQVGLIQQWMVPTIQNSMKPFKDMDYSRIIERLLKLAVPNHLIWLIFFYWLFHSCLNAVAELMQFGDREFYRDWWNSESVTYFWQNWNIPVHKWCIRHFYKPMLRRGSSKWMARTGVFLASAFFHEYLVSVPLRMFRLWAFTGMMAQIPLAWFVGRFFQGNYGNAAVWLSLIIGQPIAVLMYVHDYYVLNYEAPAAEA
# assayText: In-vitro DGAT1 assay (hDGAT1 microsomes from Sf9 cells, 14C oleoyl CoA, triglyceride formation)
# Assay type: biochemical
# settings: At 10 μM

molecule: O=C(O)[C@@H]1CCCN1C(=O)c1cc(-c2ccc(Nc3nc4ccc(F)cc4s3)cc2)no1 [Example 19]
testedOn: hDGAT1 (Homo sapiens)
result: 50 to 75%

CC(C)[C@H](NC(=O)c1cc(-c2ccc(NC(=O)NC3CCCCC3)cc2)no1)C(=O)O [Example 81] yielded inhibition at 10 µM of 75 to 100%

CC(C)[C@H](NC(=O)c1cc(-c2cccc(Nc3nc4ccc(F)cc4s3)c2)no1)C(=O)O [Example 23] yielded inhibition at 10 µM of 0 to 50%

COC(=O)C1(NC(=O)c2cc(-c3ccc(Nc4nc5ccc(F)cc5s4)cc3)no2)CCCC1 [Example 62] yielded inhibition at 10 µM of 0 to 50%

The measured values listed here are drawn from patent US8835428B2.
